Give measured TR-α Fold Induction w.r.t T3(100 nm) for each item. Keep answers brief.
Target: TR-α (Homo sapiens, UniProt P10827)
Sequence (P10827 1-410 isoform P10827-2): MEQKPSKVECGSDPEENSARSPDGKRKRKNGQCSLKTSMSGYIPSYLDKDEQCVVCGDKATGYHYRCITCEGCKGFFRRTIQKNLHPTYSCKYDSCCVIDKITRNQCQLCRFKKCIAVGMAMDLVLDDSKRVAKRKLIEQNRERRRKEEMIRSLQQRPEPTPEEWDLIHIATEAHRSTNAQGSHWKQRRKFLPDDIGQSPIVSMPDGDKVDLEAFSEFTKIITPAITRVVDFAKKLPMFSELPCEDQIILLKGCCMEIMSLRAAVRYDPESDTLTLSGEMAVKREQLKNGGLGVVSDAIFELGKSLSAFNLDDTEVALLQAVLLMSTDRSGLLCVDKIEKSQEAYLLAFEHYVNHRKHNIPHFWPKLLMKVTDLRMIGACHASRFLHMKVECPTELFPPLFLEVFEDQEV
Experiment: In vitro TR-α activity (in-house protocol)
Assay type: cell-based
Settings: Conc. 10 nM
Give the figure by itself; no unit, no explanation.

Query string: Can you look up the measured TR-α Fold Induction w.r.t T3(100 nm) of O=C(O)CN(C(=O)Oc1ccc(O)cc1)c1cc(Cl)c(Oc2ccc(O)c(S(=O)(=O)N3CCOCC3)c2)c(Cl)c1 for me?
Result string: 12.50

Query string: Follow-up entry: O=C(O)CN(C(=O)Oc1ccc(O)cc1)c1cc(Cl)c(Oc2ccc(O)c(S(=O)(=O)N3CCCCC3)c2)c(Cl)c1
Result string: 56.19

Query string: Same question, Cc1cc(N(CC(=O)O)C(=O)Oc2ccc(O)cc2)cc(C)c1Oc1ccc(O)c(C(C)C)c1 this time
Result string: 26.63

Query string: Now this one: Cc1cc(N(CC(=O)O)CC(=O)O)cc(C)c1Oc1ccc(O)c(C(C)C)c1
Result string: 40.84

---

Molecular target: TR-β (Homo sapiens, UniProt P10828)
Sequence (P10828 1-461): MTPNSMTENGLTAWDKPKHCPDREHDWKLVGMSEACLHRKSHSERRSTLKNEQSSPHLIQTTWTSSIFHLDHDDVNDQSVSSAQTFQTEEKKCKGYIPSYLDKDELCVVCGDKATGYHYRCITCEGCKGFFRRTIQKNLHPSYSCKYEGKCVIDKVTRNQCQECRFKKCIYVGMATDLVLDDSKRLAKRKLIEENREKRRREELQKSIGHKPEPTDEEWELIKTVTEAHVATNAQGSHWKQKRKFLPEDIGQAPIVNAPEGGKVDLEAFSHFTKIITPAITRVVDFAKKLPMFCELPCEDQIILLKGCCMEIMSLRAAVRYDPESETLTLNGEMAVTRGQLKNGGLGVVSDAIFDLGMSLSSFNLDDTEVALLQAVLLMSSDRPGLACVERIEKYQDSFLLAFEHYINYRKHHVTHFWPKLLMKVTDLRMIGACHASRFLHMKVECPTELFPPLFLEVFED
Assay: In vitro TR-β activity (in-house protocol)
Format: cell-based
Conditions: Conc. 100 nM; read-out: TR-β Fold Induction w.r.t T3(100 nm)
Kindly supply the reported fold induction at 0.1 µM values for the records listed here.

Query string: Reported fold induction at 0.1 µM, compound O=C(O)CN(C(=O)Oc1ccc(O)cc1)c1cc(Br)c(Oc2ccc(O)c(S(=O)(=O)NC3CC4CCC3C4)c2)c(Br)c1 (stereo not shown) : ____
Result string: 27

Query string: What do you get for CCc1cc(Oc2c(Cl)cc(N(CC(=O)O)C(=O)Oc3ccc(O)cc3)cc2Cl)ccc1O ?
Result string: 47.7

Query string: For CCOC(=O)N(CC(=O)O)c1cc(Cl)c(Oc2ccc(O)c(C(=O)c3cccc(Cl)c3)c2)c(Cl)c1 then?
Result string: 70.1

Query string: Next entry: O=C(O)CN(C(=O)Oc1ccc(O)cc1)c1cc(Cl)c(Oc2ccc(O)c(S(=O)(=O)N3CCCCC3)c2)c(Cl)c1
Result string: 90

Query string: Also CCOC(=O)N(CC(=O)O)c1cc(Cl)c(Oc2ccc(O)c(C(=O)c3ccc(F)cc3)c2)c(Cl)c1 ?
Result string: 70.5

Query string: And the next one, CC(C)c1cc(Oc2c(Cl)cc(N(CC(=O)O)C(=O)Oc3ccc(O)cc3)cc2Cl)ccc1O ?
Result string: 119

Query string: For CC(C)(C)c1cc(Oc2c(Cl)cc(N(CC(=O)O)C(=O)Oc3ccc(O)cc3)cc2Cl)ccc1O then?
Result string: 125
